Attribution: patent US20090016990A1

System: Pseudomonas aeruginosa ATCC 27853
assay: MBEC assay, biofilm inhibition (prevention of biofilm formation), MBEC bioFILM PA panel
Format: cell-based
Design: unit not given here
particulars: Table 9; antibiotic or antibiotic combination alone; value per component, separated by /
MBEC-Biofilm Inhibition, without salt of compound 2: recorded values

{"compound": "O=C(O)c1cn(C2CC2)c2cc(N3CCNCC3)c(F)cc2c1=O [CP, ciprofloxacin]", "endpoint result": ">0.5"}
{"compound": "NC[C@H]1O[C@H](O[C@H]2[C@H](O)[C@@H](O[C@H]3O[C@H](CO)[C@@H](O)[C@H](N)[C@H]3O)[C@H](N)C[C@@H]2N)[C@H](N)C[C@@H]1O [TO, tobramycin]", "endpoint result": ">2"}
{"compound": "C[C@@H](O)[C@H]1C(=O)N2C(C(=O)O)=C(S[C@@H]3CN[C@H](C(=O)N(C)C)C3)[C@H](C)[C@H]12 [MER, meropenem]", "endpoint result": ">2"}

Attention now turns to another entry.
Lab book: MBEC-Biofilm Inhibition, without salt of compound 2 of NCC[C@H](O)C(=O)N[C@@H]1C[C@H](N)[C@@H](O[C@H]2O[C@H](CN)[C@@H](O)[C@H](O)[C@H]2O)[C@H](O)[C@H]1O[C@H]1O[C@H](CO)[C@@H](O)[C@H](N)[C@H]1O [AK, amikacin] noted as >8

====

System: Pseudomonas aeruginosa ATCC 27853
assay: MBEC assay, biofilm inhibition (prevention of biofilm formation), MBEC bioFILM PA panel
Assay type: cell-based
Set-up: unit not given here
particulars: antibiotic alone
Reported MBEC-Biofilm Inhibition, Without compound 9 is given for each of the following molecules.

Check out these entries, answers already filled in.
{"molecule": "CO/N=C(\\C(=O)N[C@@H]1C(=O)N2C(C(=O)[O-])=C(C[N+]3(C)CCCC3)CS[C@H]12)c1csc(N)n1 [CPE, cefepime]", "endpoint result": ">4"}
{"molecule": "CC(C)(O/N=C(\\C(=O)N[C@@H]1C(=O)N2C(C(=O)[O-])=C(C[n+]3ccccc3)CS[C@H]12)c1csc(N)n1)C(=O)O [CAZ, ceftazidime]", "endpoint result": ">4"}

The recorded MBEC-Biofilm Inhibition, Without compound 9 with Pseudomonas aeruginosa ATCC 27853 for NCC[C@H](O)C(=O)N[C@@H]1C[C@H](N)[C@@H](O[C@H]2O[C@H](CN)[C@@H](O)[C@H](O)[C@H]2O)[C@H](O)[C@H]1O[C@H]1O[C@H](CO)[C@@H](O)[C@H](N)[C@H]1O [AK, amikacin] was >8

====

Tested on: Pseudomonas aeruginosa ATCC 27853
assay: MBEC assay, biofilm elimination, MBEC bioFILM PA panel
Assay type: cell-based
particulars: Table 10; antibiotic or antibiotic combination alone; value per component
molecules and their reported MBEC-Biofilm Elimination, without salt of compound 6

Solved entries (count: 3):
{"molecule": "C[C@H]1[C@H](NC(=O)/C(=N\\OC(C)(C)C(=O)O)c2csc(N)n2)C(=O)N1S(=O)(=O)O", "endpoint result": ">4"}
{"molecule": "O=C(O)c1cn(C2CC2)c2cc(N3CCNCC3)c(F)cc2c1=O", "endpoint result": ">0.5"}
{"molecule": "NCC[C@H](O)C(=O)N[C@@H]1C[C@H](N)[C@@H](O[C@H]2O[C@H](CN)[C@@H](O)[C@H](O)[C@H]2O)[C@H](O)[C@H]1O[C@H]1O[C@H](CO)[C@@H](O)[C@H](N)[C@H]1O", "endpoint result": ">8"}

// recorded MBEC-Biofilm Elimination, without salt of compound 6 for O=C(N[C@H](CO)[C@H](O)c1ccc([N+](=O)[O-])cc1)C(Cl)Cl : >4

Form field MBEC-Biofilm Elimination, without salt of compound 6, entry C[C@@H](O)[C@H]1C(=O)N2C(C(=O)O)=C(S[C@@H]3CN[C@H](C(=O)N(C)C)C3)[C@H](C)[C@H]12 : >1

Per the records, this molecule ( CC(C)(O/N=C(\C(=O)N[C@@H]1C(=O)N2C(C(=O)[O-])=C(C[n+]3ccccc3)CS[C@H]12)c1csc(N)n1)C(=O)O ) has MBEC-Biofilm Elimination, without salt of compound 6 equal to >4

So, CO/N=C(\C(=O)N[C@@H]1C(=O)N2C(C(=O)[O-])=C(C[N+]3(C)CCCC3)CS[C@H]12)c1csc(N)n1 [CPE, cefepime] ? Its MBEC-Biofilm Elimination, without salt of compound 6 was >4

The molecule identified as NC[C@H]1O[C@H](O[C@H]2[C@H](O)[C@@H](O[C@H]3O[C@H](CO)[C@@H](O)[C@H](N)[C@H]3O)[C@H](N)C[C@@H]2N)[C@H](N)C[C@@H]1O registered its MBEC-Biofilm Elimination, without salt of compound 6 at >2
